# measurement.target: T1, human ROR1 (full-length, on the cell surface) (human, UniProt Q01973 30-937)
# T1 construct: whole, on cells; the tumour cell lines carry their own ROR1; also called Ba/F3-ROR1 cells; Jeko-1
# T1 sequence (Q01973 30-937): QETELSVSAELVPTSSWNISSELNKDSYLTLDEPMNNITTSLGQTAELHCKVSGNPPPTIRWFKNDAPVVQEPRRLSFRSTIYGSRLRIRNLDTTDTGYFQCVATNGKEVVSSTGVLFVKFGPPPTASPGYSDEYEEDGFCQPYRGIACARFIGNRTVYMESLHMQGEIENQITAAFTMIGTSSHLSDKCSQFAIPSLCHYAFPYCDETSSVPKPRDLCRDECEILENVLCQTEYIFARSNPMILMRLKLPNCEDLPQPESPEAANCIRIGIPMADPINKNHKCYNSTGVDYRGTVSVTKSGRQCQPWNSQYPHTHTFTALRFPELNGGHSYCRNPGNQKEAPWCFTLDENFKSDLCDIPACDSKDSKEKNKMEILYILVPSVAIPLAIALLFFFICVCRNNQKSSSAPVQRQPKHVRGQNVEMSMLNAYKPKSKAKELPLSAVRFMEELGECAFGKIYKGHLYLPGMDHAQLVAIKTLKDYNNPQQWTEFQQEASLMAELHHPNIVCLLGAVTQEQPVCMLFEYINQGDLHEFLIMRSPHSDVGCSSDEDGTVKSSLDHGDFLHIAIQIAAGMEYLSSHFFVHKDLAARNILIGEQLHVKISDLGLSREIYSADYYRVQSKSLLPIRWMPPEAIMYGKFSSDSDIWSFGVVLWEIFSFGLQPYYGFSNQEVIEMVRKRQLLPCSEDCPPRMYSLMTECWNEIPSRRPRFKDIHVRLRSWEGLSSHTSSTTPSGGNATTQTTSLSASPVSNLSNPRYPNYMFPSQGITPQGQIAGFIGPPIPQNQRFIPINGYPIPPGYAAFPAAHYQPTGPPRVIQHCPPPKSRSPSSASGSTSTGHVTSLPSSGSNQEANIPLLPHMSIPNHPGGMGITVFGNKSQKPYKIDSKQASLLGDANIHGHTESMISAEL
# assay.text: flow cytometry, HT-29 cells
# Experimental: The affinities of the anti-human ROR1 humanized antibodies to Ba/F3-ROR1, Jeko-1, HT-29 and A549 cells were detected by flow cytometry. The specific experimental steps were as follows: the BaBF3-ROR1, Jeko-1, HT-29 and A549 cells were incubated with the purified humanized antibodies of different concentration gradients on ice for 30 minutes, and the anti-ROR1 antibody UC961 with human IgG1 and the anti-TNP antibody were used as positive and negative controls, respectively.
Reported values of EC50 for individual entries
# unit: nM | format: bare number

Consider the worked cases shown below.
3D8-Hu45 (antibody, human IgG1, kappa, V domains shown, humanized, human IgG1 / kappa) VH: EVQLVESGGGLVQPGGSLRLSCAASGFTFSSYAMSWVRQAPGKGLEWVSSINSGGSTYYPDSVKGRFTISRDNSKNTLYLQMNSLRAEDTAVYYCARVNYYGYGDYAMDYWGQGTLVTVSS VL: DIQMTQSPSSLSASVGDRVTITCQASQDINSYLSWFQQKPGKAPKTLIYRANRLVTGVPSRFSGSGSGTDFTFTISSLQPEDIATYYCLQYDEFPYTFGGGTKLEIKR    0.2
3D8-Hu55 (antibody, human IgG1, kappa, V domains shown, humanized, human IgG1 / kappa) VH: EVQLVESGGGLVQPGGSLRLSCAASGFTFSSYAMSWVRQAPGKGLEWVSSINSGGSTYYPDSVKGRFTISRENAKNSLYLQMNSLRAGDTAVYYCARVNYYGYGDYAMDYWGQGTLVTVSS VL: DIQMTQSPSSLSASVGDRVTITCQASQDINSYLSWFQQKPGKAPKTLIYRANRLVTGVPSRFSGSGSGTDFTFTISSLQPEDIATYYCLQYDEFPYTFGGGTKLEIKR    0.17

Note: attention shifts to another entry.
Input line: Supply recorded EC50 for 38F8-Hu36 (antibody, human IgG1, kappa, V domains shown, humanized, human IgG1 / kappa) VH: QVQLVESGGGLVKPGGSLRLSCAASGFTFSNYAMSWVRQAPGKGLEWVASISSGGPTYYADSVKGRFTISRDNAKNSLYLQMNSLRAEDTAVYYCARGYRYDVNWYFDVWGAGTMVTVSS VL: DIQMTQSPSSLSASVGDRVTITCQASQDINSYLTWFQQKPGKSPKTLIHRANRLVTGVPSRFSGSGSGTDFTFTISSLQPEDIATYYCLQYDEFPYTFGGGTKVEIKR here.
Output line: 0.37
